# tgt: human ADAMTS-5 (Homo sapiens (Human))
# condition.notes: read-out: hADAMTS-5 potency IC50
Reported IC50 is given for each of the following molecules.

{"molecule": "Cc1cc(N2CCN(C(=O)CCC3(c4ccccc4)NC(=O)NC3=O)CC2)ccc1[N+](=O)[O-] (stereo not drawn) [compound 23]", "unit.abbrev": "nM", "IC50": 157}
{"molecule": "Cc1cccc(C2(CCC(=O)N3CCN(c4cccc(Cl)c4)CC3)NC(=O)NC2=O)c1 (stereo not drawn) [compound 141]", "unit.abbrev": "nM", "IC50": 119}
{"molecule": "Cc1ccc(C)c(N2CCN(C(=O)CCC3(c4ccccn4)NC(=O)NC3=O)CC2)c1 (stereo not drawn) [compound 87]", "unit.abbrev": "nM", "IC50": 137}
{"molecule": "O=C1NC(=O)C(CCC(=O)N2CCN(c3cccc(Cl)c3)CC2)(c2ccc(Cl)cc2)N1 (stereo not drawn) [compound 74]", "unit.abbrev": "nM", "IC50": 89}
{"molecule": "Cc1cccc(N2CCN(C(=O)CCC3(C4CC4)NC(=O)NC3=O)CC2)c1C (stereo not drawn) [compound 57]", "unit.abbrev": "nM", "IC50": 93}
{"molecule": "Cc1ccc(F)cc1N1CCN(C(=O)CCC2(c3cccnc3)NC(=O)NC2=O)CC1 (stereo not drawn) [compound 92]", "unit.abbrev": "nM", "IC50": 63}

* * *

# tgt: human ADAMTS-5 (Homo sapiens (Human), UniProt Q9UNA0)
# Sequence (Q9UNA0 262-930): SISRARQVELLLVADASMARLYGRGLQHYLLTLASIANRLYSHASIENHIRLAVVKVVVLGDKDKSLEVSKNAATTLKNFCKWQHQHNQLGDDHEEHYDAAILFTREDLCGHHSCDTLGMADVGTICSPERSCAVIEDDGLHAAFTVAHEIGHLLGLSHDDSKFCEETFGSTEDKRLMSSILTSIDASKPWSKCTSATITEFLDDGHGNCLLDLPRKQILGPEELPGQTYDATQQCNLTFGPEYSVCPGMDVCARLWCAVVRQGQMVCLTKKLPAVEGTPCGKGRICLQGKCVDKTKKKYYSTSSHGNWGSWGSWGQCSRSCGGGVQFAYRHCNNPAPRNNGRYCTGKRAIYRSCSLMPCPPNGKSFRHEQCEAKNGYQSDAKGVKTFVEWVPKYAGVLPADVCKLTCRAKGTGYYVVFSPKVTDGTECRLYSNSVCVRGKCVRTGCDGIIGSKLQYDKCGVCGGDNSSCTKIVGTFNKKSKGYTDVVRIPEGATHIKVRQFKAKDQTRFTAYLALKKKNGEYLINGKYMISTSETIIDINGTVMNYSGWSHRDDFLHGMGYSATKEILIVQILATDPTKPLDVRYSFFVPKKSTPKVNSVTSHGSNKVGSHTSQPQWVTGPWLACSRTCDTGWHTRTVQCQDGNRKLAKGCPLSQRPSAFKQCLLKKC
# condition.notes: read-out: hADAMTS-5 potency IC50
Measured log10(IC50) by item
metric: log10(IC50) (log10 of the value in nM)

{"compound": "C[C@H]1CN(C(=O)CCC2(c3ccccn3)NC(=O)NC2=O)CCN1c1cc(F)cc(Cl)c1 (stereo partly shown) [compound 346]", "log10(IC50)": 1.57}
{"compound": "C[C@H]1CN(C(=O)CCC2(c3ccccn3)NC(=O)NC2=O)CCN1c1ccc(F)c(Cl)c1 (stereo partly shown) [compound 457]", "log10(IC50)": 1.67}
{"compound": "C[C@H]1CN(C(=O)CCC2(c3ncccn3)NC(=O)NC2=O)CCN1c1cc(F)cc(F)c1 (stereo partly shown) [compound 382]", "log10(IC50)": 1.59}
{"compound": "CC(CC1NC(=O)NC1=O)C(=O)N1CCN(c2ccc(F)c(Cl)c2)[C@@H](C)C1 (stereo partly shown) [compound 441]", "log10(IC50)": 1.77}
{"compound": "CN(C)c1cccc(N2CCN(C(=O)CCC3(C4CC4)NC(=O)NC3=O)CC2)c1 (stereo not shown) [compound 209]", "log10(IC50)": 2.92}

* * *

# tgt: human ADAMTS-5 (Homo sapiens (Human), UniProt Q9UNA0)
# condition.notes: read-out: hADAMTS-5 potency IC50
satisfied if IC50 is below 60 nM. not satisfied if not; exact matches included in not satisfied.

{"molecule": "COCCNC(=O)CC1(CCC(=O)N2CCN(c3cc(Cl)cc(Cl)c3)CC2)NC(=O)NC1=O (centres unmarked)", "assigned.label": "not satisfied"}
{"molecule": "N#Cc1cccc(N2CCN(C(=O)CCC3(C4CC4)NC(=O)NC3=O)CC2)c1 (centres unmarked)", "assigned.label": "not satisfied"}
{"molecule": "COCC(CC1(C)NC(=O)NC1=O)C(=O)N1CCN(c2cccc(F)c2)[C@@H](C)C1 (some centres unmarked)", "assigned.label": "satisfied"}
{"molecule": "CC1(CC(COCc2ccccc2)C(=O)N2CCN(c3cc(Cl)cc(Cl)c3)CC2)NC(=O)NC1=O (centres unmarked)", "assigned.label": "satisfied"}
{"molecule": "COC(CC1(C)NC(=O)NC1=O)C(=O)N1CCN(c2ccc(F)c(Cl)c2)[C@@H](C)C1 (some centres unmarked)", "assigned.label": "satisfied"}
{"molecule": "CC(CC1(C2CC2)NC(=O)NC1=O)C(=O)N1CCN(c2cc(F)cc(Cl)c2)[C@@H](C)C1 (some centres unmarked) [compound 194]", "assigned.label": "satisfied"}
{"molecule": "CC(CC1(CCS(C)(=O)=O)NC(=O)NC1=O)C(=O)N1CCN(c2cc(Cl)cc(Cl)c2)CC1 (centres unmarked)", "assigned.label": "satisfied"}
{"molecule": "C[C@H]1CN(C(=O)CCC2(C3CC3)NC(=O)NC2=O)CCN1c1ccc(Cl)nn1 (some centres unmarked)", "assigned.label": "not satisfied"}
{"molecule": "O=C(CC1(CCC(=O)N2CCN(c3cc(Cl)cc(Cl)c3)CC2)NC(=O)NC1=O)NCCO (centres unmarked)", "assigned.label": "not satisfied"}
{"molecule": "C[C@H]1CN(C(=O)CC[C@@]2(C)NC(=O)NC2=O)CCN1c1ccc(Cl)c(Cl)c1", "assigned.label": "satisfied"}
{"molecule": "C[C@H]1CN(C(=O)CCC2(c3cn(C)cn3)NC(=O)NC2=O)CCN1c1ccc(F)c(Cl)c1 (some centres unmarked)", "assigned.label": "satisfied"}
{"molecule": "CC1(CC(CC#N)C(=O)N2CCN(c3cc(Cl)cc(Cl)c3)CC2)NC(=O)NC1=O (centres unmarked)", "assigned.label": "not satisfied"}
{"molecule": "Cc1cc(-c2cccc(N3CCN(C(=O)CCC4(C5CC5)NC(=O)NC4=O)C[C@@H]3C)c2)ccn1 (some centres unmarked)", "assigned.label": "not satisfied"}
{"molecule": "CC(CC1(CC2CCN(C(=O)OC(C)(C)C)CC2)NC(=O)NC1=O)C(=O)N1CCN(c2cc(Cl)cc(Cl)c2)CC1 (centres unmarked)", "assigned.label": "satisfied"}
{"molecule": "Cc1cc(N2CCN(C(=O)CCC3(C)NC(=O)NC3=O)CC2)c(F)cc1Cl (centres unmarked)", "assigned.label": "not satisfied"}
{"molecule": "C[C@H]1CN(C(=O)CCC2(C3CC3)NC(=O)NC2=O)CCN1c1ccc2c(cnn2C)c1 (some centres unmarked)", "assigned.label": "not satisfied"}
{"molecule": "C[C@H]1CN(C(=O)CCC2(C3CC3)NC(=O)NC2=O)CCN1c1cccc(-c2ccc(Cl)nn2)c1 (some centres unmarked)", "assigned.label": "not satisfied"}
{"molecule": "CC(CC1(CCN)NC(=O)NC1=O)C(=O)N1CCN(c2cc(Cl)cc(Cl)c2)CC1 (centres unmarked)", "assigned.label": "not satisfied"}
{"molecule": "CC(CC1(C)NC(=O)NC1=O)C(=O)N1CCN(c2ccc(F)c(Cl)c2)[C@@H](C)C1 (some centres unmarked) [compound 405]", "assigned.label": "satisfied"}
{"molecule": "CC(CC1(C2CC2)NC(=O)NC1=O)C(=O)N1CCN(c2ccc(F)c(Cl)c2)[C@@H](C)C1 (some centres unmarked) [compound 192]", "assigned.label": "satisfied"}
{"molecule": "CC1(CC(CO)C(=O)N2CCN(c3cc(Cl)cc(Cl)c3)CC2)NC(=O)NC1=O (centres unmarked) [compound 425]", "assigned.label": "satisfied"}
{"molecule": "C[C@H]1CN(C(=O)CCC2(c3cocn3)NC(=O)NC2=O)CCN1c1cc(Cl)cc(Cl)c1 (some centres unmarked)", "assigned.label": "not satisfied"}
{"molecule": "Cc1cccc(C2(CCC(=O)N3CCN(c4cc(Cl)cc(Cl)c4)[C@@H](C)C3)NC(=O)NC2=O)n1 (some centres unmarked)", "assigned.label": "satisfied"}
{"molecule": "CC(C)n1cc(-c2cccc(N3CCN(C(=O)CCC4(C5CC5)NC(=O)NC4=O)C[C@@H]3C)c2)cn1 (some centres unmarked)", "assigned.label": "not satisfied"}
{"molecule": "C[C@H]1CN(C(=O)CCC2(c3cccnc3)NC(=O)NC2=O)CCN1c1ccc(Cl)c(Cl)c1 (some centres unmarked)", "assigned.label": "satisfied"}

* * *

# tgt: human TACE (Homo sapiens (Human))
# Sequence (P78536 whole entry, looked up, change not shown): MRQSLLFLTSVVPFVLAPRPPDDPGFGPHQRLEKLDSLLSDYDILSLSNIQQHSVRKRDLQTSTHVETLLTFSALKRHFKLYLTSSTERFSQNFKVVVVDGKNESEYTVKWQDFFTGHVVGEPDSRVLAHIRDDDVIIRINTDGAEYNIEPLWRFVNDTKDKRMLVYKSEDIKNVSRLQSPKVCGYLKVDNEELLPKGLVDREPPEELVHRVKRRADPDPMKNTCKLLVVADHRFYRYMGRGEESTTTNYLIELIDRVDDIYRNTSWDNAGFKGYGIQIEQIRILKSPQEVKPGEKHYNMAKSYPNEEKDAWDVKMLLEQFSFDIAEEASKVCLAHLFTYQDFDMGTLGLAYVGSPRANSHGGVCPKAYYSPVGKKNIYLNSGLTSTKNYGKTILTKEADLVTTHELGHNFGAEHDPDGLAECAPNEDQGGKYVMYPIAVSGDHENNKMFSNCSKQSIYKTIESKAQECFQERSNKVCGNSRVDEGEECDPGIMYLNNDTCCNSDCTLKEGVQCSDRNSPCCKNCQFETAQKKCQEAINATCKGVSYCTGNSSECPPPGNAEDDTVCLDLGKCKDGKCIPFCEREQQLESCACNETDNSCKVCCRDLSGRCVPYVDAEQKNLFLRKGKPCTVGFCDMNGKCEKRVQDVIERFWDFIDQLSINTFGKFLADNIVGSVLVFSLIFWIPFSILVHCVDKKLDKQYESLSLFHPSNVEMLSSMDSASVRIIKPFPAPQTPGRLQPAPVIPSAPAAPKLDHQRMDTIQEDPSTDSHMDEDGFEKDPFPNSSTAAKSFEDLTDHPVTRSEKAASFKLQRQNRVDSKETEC
# condition.notes: read-out: TACE potency IC50

{"compound": "C[C@H]1CN(C(=O)CCC2(c3ncccn3)NC(=O)NC2=O)CCN1c1ccc(Cl)c(Cl)c1 (stereo partly drawn)", "IC50": "> 4 µM"}
{"compound": "C[C@H]1CN(C(=O)CCC2(c3cocn3)NC(=O)NC2=O)CCN1c1cc(F)cc(Cl)c1 (stereo partly drawn)", "IC50": "> 4 µM"}
{"compound": "C[C@H]1CN(C(=O)CCC2(C3CC3)NC(=O)NC2=O)CCN1c1cc(Cl)cc(Cl)c1 (stereo partly drawn)", "IC50": "> 4 µM"}

* * *

# tgt: human ADAMTS-5 (Homo sapiens (Human), UniProt Q9UNA0)
# condition.notes: read-out: hADAMTS-5 potency IC50
Hi! Could you tag entries with IC50 below 40 nM as TRUE, and those at or above as FALSE? Much appreciated.

{"compound": "CC(CC1NC(=O)NC1=O)C(=O)N1CCN(c2ccc(F)c(F)c2)[C@@H](C)C1 (stereo partly drawn)", "assigned.label": "FALSE"}
{"compound": "C[C@H]1CN(C(=O)CCC2(C3CC3)NC(=O)NC2=O)CCN1c1cnccn1 (stereo partly drawn)", "assigned.label": "FALSE"}
{"compound": "Cc1cncc(N2CCN(C(=O)CCC3(C4CC4)NC(=O)NC3=O)C[C@@H]2C)c1 (stereo partly drawn)", "assigned.label": "FALSE"}
{"compound": "C[C@H]1CN(C(=O)CCC2(C3CC3)NC(=O)NC2=O)CCN1c1cc(Cl)nc(Cl)c1 (stereo partly drawn)", "assigned.label": "FALSE"}
{"compound": "CC(CC1(c2ccccn2)NC(=O)NC1=O)C(=O)N1CCN(c2cc(Cl)cc(Cl)c2)[C@@H](C)C1 (stereo partly drawn)", "assigned.label": "TRUE"}
{"compound": "CC(CC1(C2CN(C(=O)OC(C)(C)C)C2)NC(=O)NC1=O)C(=O)N1CCN(c2ccc(F)c(F)c2)[C@@H](C)C1 (stereo partly drawn)", "assigned.label": "FALSE"}
{"compound": "COCC1(CC(C)C(=O)N2CCN(c3ccc(F)c(F)c3)[C@@H](C)C2)NC(=O)NC1=O (stereo partly drawn)", "assigned.label": "TRUE"}
{"compound": "C[C@H]1CN(C(=O)CCC2(C3CC3)NC(=O)NC2=O)CCN1c1cc(F)cc(Cl)c1 (stereo partly drawn)", "assigned.label": "TRUE"}
{"compound": "CC(=O)N1CC(C2(CC(C)C(=O)N3CCN(c4ccc(F)c(F)c4)CC3)NC(=O)NC2=O)C1 (stereo not drawn)", "assigned.label": "FALSE"}
{"compound": "C[C@H]1CN(C(=O)CCC2(c3ccccn3)NC(=O)NC2=O)CCN1c1ccc(Cl)c(Cl)c1 (stereo partly drawn) [compound 458]", "assigned.label": "TRUE"}
{"compound": "CC(CC1(C)NC(=O)NC1=O)C(=O)N1CCN(c2cccnc2)[C@@H](C)C1 (stereo partly drawn)", "assigned.label": "FALSE"}
{"compound": "C[C@H]1CN(C(=O)CCC2(C3CC3)NC(=O)NC2=O)CCN1c1cc(Cl)cc(Cl)n1 (stereo partly drawn)", "assigned.label": "FALSE"}
{"compound": "O=C1NC(=O)C(CCC(=O)N2CCN(c3cccc(Cl)c3)CC2)(CN2CCOCC2)N1 (stereo not drawn)", "assigned.label": "FALSE"}
{"compound": "COCC1(CC(C)C(=O)N2CCN(c3cccc(F)c3)[C@@H](C)C2)NC(=O)NC1=O (stereo partly drawn)", "assigned.label": "TRUE"}
{"compound": "C[C@H]1CN(C(=O)CCC2(C3CC3)NC(=O)NC2=O)CCN1c1cncc(F)c1 (stereo partly drawn)", "assigned.label": "FALSE"}
{"compound": "CC(CC1(C)NC(=O)NC1=O)C(=O)N1CCN(c2cccc(-c3cn[nH]c3)c2)[C@@H](C)C1 (stereo partly drawn)", "assigned.label": "FALSE"}
{"compound": "COCC1(CC(C)C(=O)N2CCN(c3cncc(Cl)c3)[C@@H](C)C2)NC(=O)NC1=O (stereo partly drawn)", "assigned.label": "FALSE"}
{"compound": "C[C@H]1CN(C(=O)C(CO)CC2(C)NC(=O)NC2=O)CCN1c1cccc(F)c1 (stereo partly drawn)", "assigned.label": "FALSE"}
{"compound": "C[C@H]1CN(C(=O)CCC2(C)NC(=O)NC2=O)CCN1c1ccc(F)c(Cl)c1 (stereo partly drawn)", "assigned.label": "FALSE"}
{"compound": "C[C@H]1CN(C(=O)CCC2(C3CC3)NC(=O)NC2=O)CCN1c1cccc(-c2cncc(Cl)c2)c1 (stereo partly drawn)", "assigned.label": "FALSE"}
